Quick reference for binding signal among some binders
targetEntity: hSSB1 (Homo sapiens, UniProt Q9BQ15 Q9BQ15:1-211)
Sequence (Q9BQ15 whole entry, one chain of several): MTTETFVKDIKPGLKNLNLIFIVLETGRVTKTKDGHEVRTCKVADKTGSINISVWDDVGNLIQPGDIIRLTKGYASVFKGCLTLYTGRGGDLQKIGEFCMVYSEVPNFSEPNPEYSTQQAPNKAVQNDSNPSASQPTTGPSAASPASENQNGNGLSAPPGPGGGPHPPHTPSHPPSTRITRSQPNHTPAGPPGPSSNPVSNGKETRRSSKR
assayInfo: SPR; LSA_In3E3 = 1
Please give a number only; it is taken to be in normalized Rmax.

- binder: "AGUGAGCCGGACUUGC (ssRNA, 2'-OMe all, PS all) [In3E3 both-end truncation 16 nt]"
  valueUnit: "normalized Rmax"
  binding signal: 0.71

Looking for the measured binding signal of CCAGUGAGCCGGACUUGCCU (ssRNA, 2'-OMe all, phosphodiester, ZEN at both ends) [In3E3 ZEN (DKLS991101)] , can you help?
0.17

Looking for the measured binding signal of AGCCGGACUUGCCU (ssRNA, 2'-OMe all, PS all) [In3E3 5' truncation 14 nt] , can you help?
0.3

Looking for the measured binding signal of CCAGUGAGCCGGACUUGCC (ssRNA, 2'-OMe all, PS all) [In3E3 3' truncation 19 nt] , can you help?
0.68
